Values from patent US4558122A

- assay summary: absorption "in situ" (intestinal sacs)
- Assay type: in vivo, rat
- condition summary: rat, in situ intestinal sacs, 2 mg in 1 ml physiological solution, rats, H2 SO4 salts, m 0 or 1, n 3, read-out: PRODUCT ABSORPTION in sacs
- Description: In the 1st test, known as "in situ" (intestinal sacs), 2 mg of each product to be tested in 1 ml of physiological solution were placed in intestinal sacs provided in rats under ether anesthesia. The rats were killed after 2 hours, and the residual content of the sac (wall+content) was analysed. […]
# note: boundary value 70% maps to Criterion not met; Fa at 2 h below it maps to Criterion met

[[record]]
compound = "C[S+](CC[C@H](NC(=O)c1ccccc1)C(=O)[O-])C[C@H]1O[C@@H](n2cnc3c(N)ncnc32)[C@H](O)[C@@H]1O (stereo partly drawn)"
class = "Criterion met"

[[record]]
compound = "CCCCCCOC(=O)[C@@H](N)CC[S+](C)C[C@H]1O[C@@H](n2cnc3c(N)ncnc32)[C@H](O)[C@@H]1O (stereo partly drawn)"
class = "Criterion met"

[[record]]
compound = "CC(=O)O[C@@H]1[C@H](OC(C)=O)[C@@H](C[S+](C)CC[C@H](NC(=O)CCC(=O)O)C(=O)[O-])O[C@H]1n1cnc2c(N)ncnc21 (stereo partly drawn)"
class = "Criterion not met"

[[record]]
compound = "CCCOC(=O)[C@@H](N)CC[S+](C)C[C@H]1O[C@@H](n2cnc3c(N)ncnc32)[C@H](O)[C@@H]1O (stereo partly drawn)"
class = "Criterion met"


Now consider the entry below.
Prompt line: is_below(Fa at 2 h, 70%) for CCOC(=O)[C@@H](N)CC[S+](C)C[C@H]1O[C@@H](n2cnc3c(N)ncnc32)[C@H](O)[C@@H]1O (stereo partly drawn) ?
Response line: Criterion met
